target: Fibroblast growth factor 2 (Homo sapiens); experiment: basic fibroblast growth factor binding to printed compounds – biochemical, small-molecule microarray, 635/667 nm fluorescence, primary screen (AID 1133); settings: FGF2, fluorescence 635/667, higher = more signal
For each of the compounds below, state its composite z-score.
Give bare numbers.

O=C1C[C@@](C(=O)O)(c2ccc([N+](=O)[O-])cc2)[C@@H](c2ccc(CO)cc2I)N1CC12CC3CC(CC(C3)C1)C2 :: -0.35
NC(=O)NCC#Cc1ccc2c(c1)[C@]1(C(=O)N2)[C@H](C(=O)NC[C@H](O)c2ccccc2)[C@H]2C(=O)O[C@H](c3ccccc3)[C@H](c3ccccc3)N2[C@@H]1c1ccccc1OCCO :: 0.54

// next entry
Query: Quickly give me recorded composite z-score for [N-]=[N+]=Nc1ccccc1[C@H]1OC(c2ccc(OCCCO)cc2)=N[C@@]1(CCS(=O)(=O)c1ccccc1)C(=O)N1CCOCC1
Response: 1.73

====

experiment: blockers of DNA damage checkpoint Chk1 activation – imaging, HeLa, hydroxyurea, phospho-Chk1 antibody, percent positive cells, primary screen (AID 1186); details: hydroxyurea-induced phospho-Chk1 immunofluorescence imaging, higher = more signal
Decide using z-score: a value greater than or equal to -0.3 is true, a smaller one is false.

Below, 4 compounds whose answers are already recorded.
C=C(CCCC)C(=O)CC[C@H](OC(C)=O)c1ccc(CO)o1 :: true
COCCOC(=O)N1C(=O)[C@@]2(c3cc(C#CCC(C(=O)OC)C(=O)OC)ccc31)[C@H](c1ccccc1OCCO)N1[C@H](c3ccccc3)[C@H](c3ccccc3)OC(=O)[C@H]1[C@@H]2C(=O)Nc1nc2ccccc2s1 :: false
COCCn1c(C(=O)N2CCCC2)cc2c1C[C@H]1CN(C(=O)c3ccccc3)[C@@](Cc3ccc(OC)cc3)(C(=O)OC)[C@@H]21 :: false
C[C@]1(C(=O)NCC(F)(F)F)c2ccccc2C(=O)N(Cc2cc(F)cc(C(F)(F)F)c2)[C@H]1c1ccc(CO)cc1 :: true

Query: Form field: z-score at least -0.3? Entry: CCOC(=O)N1C(c2ccc(OCCCO)cc2)=NC(C(=O)OC)N1C(=O)OCC (stereo unspecified)
Response: true

Query: Form field: z-score at least -0.3? Entry: C=C[C@H](C)[C@H](OC(=O)Nc1ccc(OC)cc1)c1ccc(O)c2ccccc12
Response: false

Query: Form field: z-score at least -0.3? Entry: COc1c(C)cc(-c2cc3c(c(-c4ccccc4)n2)[Si](C(C)C)(C(C)C)O[C@H]3c2ccccc2)cc1C
Response: false

Query: Form field: z-score at least -0.3? Entry: O=C1C2C=CC(C(O)c3ccc(-c4ccccc4)s3)N(Nc3ccccc3F)C2C(=O)N1c1ccccc1 (stereo unspecified)
Response: true

====

experiment: compound effects on multiple myeloma cell viability – MM1S, calcein-AM fluorescence, 48 h, basal, profiling panel (AID 1165); settings: higher = more signal;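 further: viability of MM1S multiple myeloma cells under basal unstimulated conditions; test concentration not given here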
Decide using z-score: a value greater than or equal to 0.09 is 1.0, a smaller one is 0.0.

Below, 10 molecules whose answers are already recorded.
[N-]=[N+]=NCc1ccccc1C[C@@]1(C(=O)NCc2ccccc2)N=C(c2ccc(OCCCO)cc2)O[C@@H]1c1ccccc1CN=[N+]=[N-] :: 0.0
C=CCN1C(=O)[C@@]2(O[C@@H](CCO)[C@H]([Si](C)(C)c3ccc(OC)cc3)[C@H]2C)c2cc(N3C(=O)COc4ccccc43)ccc21 :: 0.0
O=C1O[C@H](c2ccccc2)[C@H](c2ccccc2)N2[C@H]1[C@@H](C(=O)N1CCCCCCC1)[C@]1(C(=O)Nc3ccc(C#CC4=CCCCC4)cc31)[C@H]2c1ccc(O)cc1 :: 0.0
COC(=O)c1c(CC[C@@H](CO)NC(=O)Nc2ncn[nH]2)oc(C(=O)Cc2ccccc2)c1C(=O)OC :: 1.0
COC(=O)[C@@]1(Cc2ccc(OC)cc2)[C@H]2c3cc(C(=O)N4CCCC4)n(CCc4ccccn4)c3C[C@H]2CN1C(=O)c1ccccc1 :: 0.0
[N-]=[N+]=NCc1ccccc1C[C@]1(C(=O)NCC(O)CO)COC(c2ccc(OCCCO)cc2)=N1 (some centres not stated) :: 0.0
O=C(NCC(O)CO)[C@]1(CCS(=O)(=O)c2ccccc2)N=C(c2ccc(OCCCO)cc2)O[C@@H]1c1ccccc1 (some centres not stated) :: 0.0
CCCC[C@@H]1C[C@H]1[C@@H](NC(=O)c1ccco1)c1ccccc1 :: 0.0
C=CC[C@@]1(C(=O)NCCN2CCOCC2)N=C(c2ccc(OCCCO)cc2)O[C@@H]1c1ccccc1CN=[N+]=[N-] :: 0.0
CN(C)CCCCCCNC(=O)[C@@H]1C[C@@H]2C(=O)NCC(=O)N2[C@@H]1c1cccc(OCCO)c1 :: 0.0

Query: Form field: z-score at least 0.09? Entry: C=CCCN(CC#C[C@H]1Oc2ccccc2S(=O)(=O)N2CCC[C@@H]12)S(=O)(=O)c1ccc(C)cc1
Response: 0.0

Query: Form field: z-score at least 0.09? Entry: CCCCC(=C=CC[C@H](O)c1ccccc1OCCO)C[C@H](O)c1cc(Cl)cc(Cl)c1O
Response: 0.0

Query: Form field: z-score at least 0.09? Entry: CC(c1ccccc1)C(O)C1C=CC2C(=O)N(c3ccccc3)C(=O)C2N1Nc1ccccc1F (configuration not stated)
Response: 1.0

Query: Form field: z-score at least 0.09? Entry: O=C(NCC(F)(F)F)[C@@H]1c2ccccc2C(=O)N(Cc2ccccc2)[C@H]1c1ccc(CO)cc1
Response: 1.0
